Origin of measurements: ChEMBL document CHEMBL6182935

Would you kindly list solubility for each of these compounds?
# assay protocol: Solubility in methanol incubated for 10 mins
# Format: physicochemical

[
  {
    "compound": "COc1cc(C2Oc3cc([C@H]4Oc5cc(O)cc(O)c5C(=O)[C@@H]4O)ccc3OC2CSSCC2Oc3ccc([C@H]4Oc5cc(O)cc(O)c5C(=O)[C@@H]4O)cc3O[C@H]2c2ccc(O)c(OC)c2)ccc1O (single isomer, unassigned)",
    "reading": "246 mg/mL"
  }
]

Can you give me solubility for all of these, one by one?
1. COc1cc([C@@H]2Oc3cc([C@H]4Oc5cc(O)cc(O)c5C(=O)[C@@H]4O)ccc3OC2CS)ccc1O (some centres undefined)
2. COc1cc([C@@H]2Oc3cc([C@H]4Oc5cc(O)cc(O)c5C(=O)[C@@H]4O)ccc3OC2CO)ccc1O (some centres undefined)
3. COc1cc([C@@H]2Oc3cc([C@H]4Oc5cc(O)cc(O)c5C(=O)[C@@H]4O)ccc3OC2CSC(C)=O)ccc1O (some centres undefined)

Result:
913 mg/mL
10.6 mg/mL
> 1000 mg/mL
